B1: SPATS1 (parent)
chain: YPEQSKGFHKAGSMLPPVNFSIVP

Variants of: B1
Experiment: protein stability index of a GFP-peptide fusion (GPS, HEK-293T) (PSI 1-6); higher = more stable;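 further: lentivirally expressed fusions sorted by FACS into six bins by GFP to DsRed ratio, PSI derived from sequencing read proportions per bin multiplied by bin number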
Conditions: c terminus: a fixed tail appended
For each entry below, report its protein stability index value.

Req: Which protein stability index is reported for this variant? F20H
Resp: 2.19

Req: What does the record list as protein stability index for G12R ?
Resp: 2.26

Req: Field request: protein stability index | item: K6R
Resp: 1.71

Req: I would be grateful if you could share the reported protein stability index for L15E .
Resp: 2.37

Req: Which protein stability index is listed for V23S ?
Resp: 1.97

Req: Request the reported protein stability index associated with A11I
Resp: 2.7

Req: # lookup: protein stability index of K6H
Resp: 1.71

Req: GET /values?readout=protein stability index&item= P24K
Resp: 2.08

Req: Need protein stability index, item P24C
Resp: 1.65

Req: What does the data say about its protein stability index? Entry: P16E
Resp: 1.95

Req: Returns the measured protein stability index for the input variant. Input: V23M
Resp: 1.93

Req: State the recorded protein stability index for this entry: A11Q
Resp: 2.17

Req: Give the measured protein stability index of P16F .
Resp: 1.98

Req: Which value of protein stability index has been reported for S21D in the records?
Resp: 1.87

Req: For the variant N19R , what protein stability index is on record?
Resp: 1.85

Req: Entry P2K has what protein stability index?
Resp: 2.87

Req: Consider the variant shown here: P2Y What is its recorded protein stability index?
Resp: 1.91

Req: What does the data say about its protein stability index? Entry: P2C
Resp: 1.62

Req: Tell me the measured protein stability index of P2W , please.
Resp: 1.45

Req: Which measured protein stability index value corresponds to P2E ?
Resp: 3.33

Req: Quick check: protein stability index of S5L ?
Resp: 2.15

Req: Please report the recorded protein stability index for P24S .
Resp: 1.94

Req: I would be grateful if you could share the reported protein stability index for K10S .
Resp: 1.91

Req: I would be grateful if you could share the reported protein stability index for P17A .
Resp: 2.63
